# credit: ChEMBL document CHEMBL1773056

Experiment: in vivo
Conditions: rhesus monkey, iv, 1 mg/kg
Description: Half life in rhesus monkey at 1 mg/kg, iv
readout-kind: half-life (h)
Please give a number only; it is taken to be in h.

According to the records, this molecule O=C1CCc2ccc(OCCCCN3CCN(c4cccc5ccccc45)CC3)nc2N1 displays half-life of 13.6

###

Experiment: in vivo
Details: rhesus monkey, po, 3 mg/kg
readout-kind: bioavailability
Note: a bare number is incomplete; add the unit.

Briefly, bioavailability measured for O=C1CCc2ccc(OCCCCN3CCN(c4cccc5ccccc45)CC3)nc2N1 : 20.5%

###

Test: in vivo
Conditions: rhesus monkey, po, 3 mg/kg
readout-kind: Cmax (ng/mL)
Supply the numeric figure in ng/mL, leaving out any unit text.

Note to self: Cmax recorded for O=C1CCc2ccc(OCCCCN3CCN(c4cccc5ccccc45)CC3)nc2N1 was 96

###

Below are pKi values measured for 5-hydroxytryptamine receptor 1A (Homo sapiens).
Answer as the number alone; pKi is minus log10 of concentration in mol/L.

The molecule O=c1ccc2cnc(OCCCCN3CCN(c4cccc(Cl)c4Cl)CC3)nc2[nH]1 showed pKi equal to 7.28

Recorded result, O=C1CCc2ccc(OCCCCN3CCN(c4cccc(Cl)c4C(F)(F)F)CC3)nc2N1 , pKi: 8.46

Consider O=C1CCc2ccc(OCCCCN3CCN(c4cccc5cc(F)ccc45)CC3)nc2N1 . Its measured pKi is 8.92

Record O=C1CCc2ccc(OCCCCN3CCN(c4cccc(Cl)c4F)CC3)nc2N1 . Reported pKi: 8.92

Input O=C1CCc2ccc(OCCCCN3CCN(c4cccc(F)c4Cl)CC3)nc2N1 . Output pKi: 8.77

// recorded pKi for O=C1CCc2ccc(OCCCCN3CCN(c4cccc5ccc(F)cc45)CC3)nc2N1 : 8.96

Item: O=c1ccc2cnc(OCCCCN3CCN(c4cccc(Cl)c4Cl)CC3)cc2[nH]1 | pKi: 7.39

So, O=C1CCc2ccc(OCCCCN3CCN(c4cccc5c4CCCC5)CC3)nc2N1 ? Its pKi was 7.55

Record O=C1CCc2ccc(OCCCCN3CCN(c4cccc(Cl)c4Cl)CC3)nc2N1 , field pKi: 7.75

The reported value for O=C1CCc2ccc(OCCCCN3CCN(c4cccc5cccc(F)c45)CC3)nc2N1 in terms of pKi is 9.11

###

Assay: in vivo
Conditions: rat, po
Description: Oral bioavailability in rat
readout-kind: bioavailability (%)
Give the number; % is assumed, so skip it.

Looking up O=C1CCc2ccc(OCCCCN3CCN(c4cccc(Cl)c4Cl)CC3)nc2N1 , I found its bioavailability recorded as 23

Lab note: O=C1CCc2ccc(CCCCCN3CCN(c4cccc(Cl)c4Cl)CC3)nc2N1 gave bioavailability of 6

###

Record set of pKi for target or system 5-hydroxytryptamine receptor 2A (Homo sapiens, UniProt P28223).
API: returns pKi as number; meaning -log10 of concentration in mol/L.

Noted for O=C1CCc2ccc(OCCCCN3CCN(c4ccc(F)c5ccccc45)CC3)nc2N1 : its pKi reads 7.93

Quick note, pKi for O=c1ccc2ccc(OCCCCN3CCN(c4cccc(Cl)c4Cl)CC3)nc2[nH]1 landed at 8.80

compound O=C1CCc2ccc(OCCCCN3CCN(c4cccc5c4OCCC5)CC3)nc2N1 , pKi observed: 9.72

The reported value for O=C1CCc2ccc(OCCCCN3CCN(c4cccc5c4CCC5)CC3)nc2N1 in terms of pKi is 9.80

Recorded pKi (compound O=C1CCc2ccc(OCCCCN3CCN(c4cccc5c(F)cccc45)CC3)nc2N1 ): 8.48

Lab book: pKi of O=C1CCc2ccc(OCCCCN3CCN(c4cc(F)cc5ccccc45)CC3)nc2N1 noted as 8.72

O=C1CCc2ccc(OCCCCN3CCN(c4cccc5ccc(F)cc45)CC3)nc2N1 yielded pKi of 9.55

Reported pKi of O=C1CCc2ccc(OCCCCN3CCN(c4cccc5cc(F)ccc45)CC3)nc2N1 : 8.46

Reported pKi ( O=C1CCc2ccc(OCCCCN3CCN(c4cccc(F)c4Cl)CC3)nc2N1 ) = 7.51

What the record says about O=C1CCc2ccc(OCCCCN3CCN(c4cccc5ccccc45)CC3)nc2N1 : pKi is 9.85

Documented pKi of Cc1cccc(N2CCN(CCCCOc3ccc4c(n3)NC(=O)CC4)CC2)c1Cl : 9.30

The reported pKi of the compound O=C1CCc2ccc(OCCCCN3CCN(c4cccc5c4CCCC5)CC3)nc2N1 was 10.05

response.value for Cc1ccccc1N1CCN(CCCCOc2ccc3c(n2)NC(=O)CC3)CC1 (field: pKi) = 7.29

###

Test: in vivo
Conditions: rat, iv, 1 mg/kg
readout-kind: clearance (L/h/kg)
# number only, unit L/h/kg dropped from output

compound O=C1CCc2ccc(OCCCCN3CCN(c4cccc5ccccc45)CC3)nc2N1 , clearance observed: 0.894

###

Experiment: in vivo
Settings: rhesus monkey, iv, 1 mg/kg
Description: Volume of distribution at steady state in rhesus monkey at 1 mg/kg, iv and 3 mg/kg, po
readout-kind: Vd
The answer should read as a number with its unit following.

Noted for O=C1CCc2ccc(OCCCCN3CCN(c4cccc5ccccc45)CC3)nc2N1 : its Vd reads 2.6 L/kg

###

Experiment: in vivo
Conditions: rat, po, 3 mg/kg
readout-kind: Tmax (h)
Give your result in h as a bare value.

get_value(item= O=C1CCc2ccc(OCCCCN3CCN(c4cccc5ccccc45)CC3)nc2N1 , readout=Tmax) returns 1.2
